# Tested on: APP 5′UTR
# Type: cell-based, human
# Recorded Conditions: Homo sapiens, SH-SY5Y; dose-responsive measurements, range; read-out: IC50 against the APP 5′UTR
pIC50: −log10 of the molar value.
Property: pIC50

The compound identified as Cc1ccc2[nH]c(-c3ccc(N)cc3)nc2c1 registered its pIC50 at 7.00 to 9.00
